Values were extracted from paper PMC6479757.

# Test system: Streptococcus pneumonia KCTC 5412
QUANTITY_KIND: MIC (µg/mL)
Expressed in µg/mL, but write only the number.

Record lookup: for Streptococcus pneumonia KCTC 5412, what MIC belongs to CO[C@@H](C(N)=O)[C@H](NC(=O)c1ccc(NC(=O)c2ccc([N+](=O)[O-])cc2)cc1)C(=O)Nc1ccc(C(=O)Nc2ccc(C(=O)Nc3ccc(C(=O)O)c(O)c3OC(C)C)c(O)c2OC(C)C)cc1 [Compound 12, coralmycin A, reference compound] ?
0.25

----------
Enterococcus faecalis KCTC 5191 data, read-out MIC

COMPOUND: CO[C@@H](C(N)=O)[C@H](NC(=O)c1ccc(NC(=O)c2ccc(N)cc2)cc1)C(=O)Nc1ccc(C(=O)Nc2ccc(C(=O)Nc3ccc(C(=O)O)cc3OC(C)C)c(O)c2OC(C)C)cc1
STUDY_SYSTEM: Enterococcus faecalis KCTC 5191
ENDPOINT_RESULT: 1 µg/mL
//
COMPOUND: CO[C@@H](C(N)=O)[C@H](NC(=O)c1ccc(NC(=O)c2ccc([N+](=O)[O-])cc2)cc1)C(=O)Nc1ccc(C(=O)Nc2ccc(C(=O)Nc3ccc(C(=O)O)cc3OC(C)C)c(O)c2OC(C)C)cc1 [Compound 11, cystobactamid 919-2, reference compound]
STUDY_SYSTEM: Enterococcus faecalis KCTC 5191
ENDPOINT_RESULT: 0.25 µg/mL

May I ask what MIC has been recorded for `CO[C@@H](C(=O)O)[C@H](NC(=O)c1ccc(NC(=O)c2ccc([N+](=O)[O-])cc2)cc1)C(=O)Nc1ccc(C(=O)Nc2ccc(C(=O)Nc3ccc(C(=O)O)cc3OC(C)C)c(O)c2OC(C)C)cc1` ?
8 µg/mL

May I ask what MIC has been recorded for `CC(C)Oc1cc(C(=O)O)ccc1NC(=O)c1ccc(NC(=O)c2ccc(N)cc2)c(OC(C)C)c1O` ?
> 32 µg/mL

May I ask what MIC has been recorded for `CCOc1cc(C(=O)O)ccc1NC(=O)c1ccc(NC(=O)c2ccc(N)cc2)c(OCC)c1O` ?
> 32 µg/mL
